biological target: APOL1 G1 (Homo sapiens, UniProt O14791, I384M/S342G); test: MultiTox-Fluor Multiplex Cytotoxicity Assay, tet-inducible APOL1 G1 T-REx-HEK293 cells; type: cell-based; parameters: expressed in transfected cells; host or cells: T-REx HEK293, clone G1 DC3.25 (pAAVS1-Puro-APOL1 G1); conditions: HEK293, Multi-Tox Assay; APOL1 variant (G0/G1/G2) of the HEK293 cells not given; read-out: Multi-Tox Assay IC90
Sequence (O14791 28-398 S342G/I384M): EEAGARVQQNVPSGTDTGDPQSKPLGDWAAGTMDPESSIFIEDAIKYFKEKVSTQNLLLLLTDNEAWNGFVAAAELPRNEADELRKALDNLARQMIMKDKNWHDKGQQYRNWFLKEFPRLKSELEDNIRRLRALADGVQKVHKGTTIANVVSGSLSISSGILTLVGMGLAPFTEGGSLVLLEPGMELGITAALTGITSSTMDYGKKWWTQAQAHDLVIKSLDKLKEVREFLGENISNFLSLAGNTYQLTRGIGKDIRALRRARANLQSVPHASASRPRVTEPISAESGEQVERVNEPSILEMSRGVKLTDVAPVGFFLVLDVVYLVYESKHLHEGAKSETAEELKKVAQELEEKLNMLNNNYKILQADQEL
Measured Property: IC90

# input Could you tell me which IC90 is on file for C[C@@H]1CC2(C[C@H](C)N1)OCCc1cc(C3CC(F)(F)C3)sc12 (single isomer, unassigned) [Compound 198] ?
# output 50 to 500 nM

Others:
# input Could you tell me which IC90 is on file for CC(=O)Nc1cccc([C@@H]2C[C@]3(C[C@H](C)N2)OCCc2cc(Cl)sc23)c1 (racemic) [Compound 113] ?
# output 50 to 500 nM

# input Moving on to C[C@@H]1CC2(C[C@H](C)N1)OCCc1c2sc(C(F)(F)F)c1CO (single isomer, unassigned) [Compound 208]
# output 50 to 500 nM

---

The following compounds are listed with their measured Emax values.
target: APOL1 G1 (Homo sapiens, UniProt O14791, I384M/S342G); test: MultiTox-Fluor Multiplex Cytotoxicity Assay, tet-inducible APOL1 G1 T-REx-HEK293 cells; type: cell-based; design: expressed in transfected cells; host or cells: T-REx HEK293, clone G1 DC3.25 (pAAVS1-Puro-APOL1 G1); settings: Multi-Tox Assay; APOL1 variant not given; read-out: Multi-Tox Assay Max Activity (%)
Enter your answer as a number in %; do not include the unit.

Recorded Emax, per entry:
# input Could you tell me which Emax is on file for C[C@H]1C[C@@]2(C[C@@H](c3cnc(C(N)=O)cn3)N1)OCCc1cc(Cl)sc12 (racemic) [Compound 63] ?
# output 99.8

# input Moving on to Cc1ccc([C@@H]2C[C@]3(C[C@H](C)N2)OCCc2cc(Cl)sc23)nc1 (racemic) [Compound 77]
# output 99

# input Moving on to CC1CC2(CC(C)N1)OCCc1cc(Cl)sc12 (mixture of isomers) [Compound 194]
# output 98.7

Others:
# input Could you tell me which Emax is on file for CC(C)c1cc2c(s1)C1(C[C@@H](C)N[C@@H](C)C1)OCC2 (single isomer, unassigned) [Compound 200] ?
# output 97

# input Moving on to C[C@H]1C[C@@]2(C[C@@H](c3cn(C)nn3)N1)OC[C@H](O)c1cc(Cl)sc12 [Compound 177]
# output 100

# input Moving on to C[C@H]1C[C@@]2(C[C@@H](c3cn(Cc4ccc(CO)cc4)nn3)N1)OC[C@@H](O)c1cc(Cl)sc12 [Compound 224]
# output 99

# input Moving on to C[C@H]1C[C@@]2(C[C@@H](c3cc(C4CC4)no3)N1)OCCc1cc(Cl)sc12 (racemic) [Compound 87]
# output 99.3

# input Moving on to Cc1cc([C@@H]2C[C@]3(C[C@H](C)N2)OCCc2cc(Cl)sc23)[nH]n1 (racemic) [Compound 73]
# output 99.8

# input Moving on to COc1ccc2[nH]c([C@@H]3C[C@]4(C[C@H](C)N3)OCCc3cc(Cl)sc34)cc2n1 (racemic) [Compound 84]
# output 99.8

# input Moving on to CC1CC2(CC(c3cnn(C)n3)N1)OCCc1cc(Cl)sc12 (stereo not drawn) [Compound 38]
# output 100

# input Moving on to CCC1CC2(CC(C)N1)OCCc1cc(Cl)sc12 (mixture of isomers) [Compound 215]
# output 99.3

# input Moving on to CC(C)C1CC2(CC(c3cn(C)nn3)N1)OCCc1cc(C(F)(F)F)sc12 (stereo not drawn) [Compound 191]
# output 99.7

# input Moving on to C[C@H]1C[C@@]2(C[C@@H](c3cn(C)nn3)N1)OCCc1cc(Cl)sc12 [Compound 1]
# output 99.3

# input Moving on to Cc1cc2c(s1)C1(CC(C)NC(c3cn(C)nn3)C1)OCC2 (single isomer, unassigned) [Compound 3]
# output 99.7

# input Moving on to C[C@H]1C[C@@]2(C[C@@H](c3ccc(=O)n(C)c3)N1)OCCc1cc(Cl)sc12 (racemic) [Compound 80]
# output 99.7

These data points were gathered from patent EP4810040A2.
